# maps each entry to its CC50 at 3 days
Test name: in vitro
Type: cell-based
Assay setup: human, 7-pt Assay; three days incubation
Your answer should be a plain number; it is taken to be in µM.

Worked set:
Compound	Unit annotation	CC50 at 3 days
CC(C)(C)OC(=O)N1CCN(S(=O)(=O)c2ccc(Oc3ccccn3)cc2)[C@@H](C(=O)NO)C1	µM	294
CS(=O)(=O)N1CCN(S(=O)(=O)c2ccc(Oc3ccc(F)cc3)cc2)[C@@H](C(=O)NO)C1	µM	12
CC(=O)N1CCN(S(=O)(=O)c2ccc(Oc3ccccc3)cc2)C(C(=O)NO)C1 (centres unmarked)	µM	81
O=C(NO)C1=C(SCCc2ccc(-c3ccccc3)cc2)CCCC1	µM	32

The record that follows has no CC50 at 3 days shown yet.
Consider the compound shown here: CC1(C)SCCN(S(=O)(=O)c2ccc(Oc3ccncc3)cc2)[C@H]1C(=O)NO What is its recorded CC50 at 3 days? 320

The measurements presented in this section are drawn from patent US20040229817A1.
